Please respond with reported MOR agonist activity, percent [35S]GTPγS binding at the stated compound concentration for every item in the list.
system: mu opiate receptor (MOR); test: MOR agonist activity using [35S]GTPγS binding assay in striatal membranes; assay type: biochemical; conditions: Series B; 1 μM compound + 1 μM β-FNA
Give bare numbers, in %.

Molecule	Numeric Value
COc1ccc(C(=O)CC2c3c(cc4c(c3OC)OCO4)CC[N+]2(C)C)c(F)c1 (stereo not shown) [Compound B0027]	21.6
COc1c2c(cc3c1C(CC(=O)CCc1ccccc1)N(C)CC3)OCO2 (stereo not shown) [Compound B0050]	48.8
COc1c2c(cc3c1C(CC(=O)c1ccc(N4CCOCC4)cc1)[N+](C)(C)CC3)OCO2 (stereo not shown) [Compound B0004]	72.0
COc1ccccc1CC(O)CC1c2c(cc3c(c2OC)OCO3)CC[N+]1(C)C (stereo not shown) [Compound B0032]	15.6
COc1c2c(cc3c1C(CC(=O)Cc1ccccc1F)[N+](C)(C)CC3)OCO2 (stereo not shown) [Compound B0055]	117.5

Lab note: each molecule below needs its MOR agonist activity, percent [35S]GTPγS binding at the stated compound concentration filled in.
1. COc1ccc(CCC(O)CC2c3c(cc4c(c3OC)OCO4)CCN2C)cc1 (stereo not shown) [Compound B0048]
2. COc1ccc(CCC(=O)CC2c3c(cc4c(c3OC)OCO4)CC[N+]2(C)C)cc1 (stereo not shown) [Compound B0016]

Result block:
1. 78.5
2. 72.2
